TEST_DETAILS: reduced viability of parasite-Hsp90 expressing yeast – ATP luminescence, 48 h, cherry-picked samples, anti-malarial Hsp90 inhibitor project, dose response (AID 540268);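 note: 0% = neutral control wells and -100% = positive control wells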
TEST_CONTEXT: yeast expressing the parasite Hsp90, ATP luminescence, at 26 µM (top of the series)
Collected activity change, negative = inhibition values appear next to each entry.
ATTRIBUTE_MEASURED: activity change, negative = inhibition (%)

1) CC1Oc2cc3oc4c(O)c(O)ccc4c(=O)c3c(O)c2C1(C)C (configuration not stated) | -0.538
2) COc1cc(N=c2ssnc2Cl)c(OC)cc1Cl | -119
3) O=C(N/N=C/c1ccc([N+](=O)[O-])o1)c1sc2ccccc2c1Cl | 18.4
4) N#C/C(=C/c1ccc(O)cc1)C(=O)NCc1ccc(Cl)cc1 | 10.6
5) CCOc1ccc(S(=O)(=O)NCc2ccccn2)c(C)c1C | 14.4
6) O=C1S/C(=C/c2ccc(N3CCOCC3)o2)C(=O)N1Cc1c(F)cccc1Cl | 23.4
7) Cc1ccc(N2C(=O)C3C4C=CC(CNC(=S)Nc5ccc(F)cc5)(O4)C3C2=O)cc1 (configuration not stated) | 9.97
8) COc1ccc(C(=O)Nc2cc(C(=O)c3ccccc3)c(C)oc2=O)cc1 | 36.8
9) COc1ccc(NC(=S)Nc2ccc3snnc3c2)cc1 | -20.2
10) CCOC(=O)c1cc([N+](=O)[O-])cc([N+](=O)[O-])c1Sc1ncnc2nc[nH]c12 | -6.96
11) Cc1cc(Br)c2c(c1)/C(=C/C(=O)c1cccs1)C(=O)N2 | -12.3
12) O=C(/C(=C/c1cccc(Cl)c1)c1nc2ccccc2[nH]1)c1ccccc1 | 49.8
13) Cc1cccc(C)c1NC(=O)COC(=O)c1ccc([N+](=O)[O-])o1 | -33.6
14) CCOC(=O)C1=C(Cc2ccc(Cl)cc2)C(=O)c2ccccc2C1=O | -104
15) O=C(CCN1C(=O)/C(=C/c2cccs2)SC1=S)NC1=NCCS1 | 60.4
16) NC(=O)/C=C\C(=O)Nc1cccc(C(F)(F)F)c1 | 12.6
17) Cc1ccc(/C=C2/NC(=O)N(Cc3ccc(Br)cc3)C2=O)o1 | 47.3
18) Cc1ccc(-c2cc(-c3ccc(F)cc3)c(C#N)c(N)n2)o1 | 19.7
19) CC1(C)N=C(SCC(=O)Nc2ccc(Cl)cc2Cl)C(c2ccccc2)=N1 | 20.1
20) N#C/C(=C/c1ccc(N2CCCCCC2)o1)c1ccc(Cl)cc1 | -50.5
21) CC(C)=CCc1c(O)ccc(C2COc3c(CC=C(C)C)c(O)cc(O)c3C2=O)c1O (configuration not stated) | -110
22) C/C(CC(=O)Nc1cc(C)ccn1)=N\NC(=O)c1cccc(C)c1O | -51.7

Values compiled from PubChem BioAssay AID540268.
